Tested on: MDA-MB-231 (breast cancer)
Experiment: Antiproliferative activity (CCK-8 cell viability), MDA-MB-231
Type: cell-based
Settings: Homo sapiens, Compound concentration: 10 μM, 72 h, read-out: Antiproliferative activity in cancerous cells, MDA-MB-231 (inhibition of cell growth)
Quick reference: inhibition at 10 µM of the listed items.

Please review the following examples before continuing.
{"columns": ["compound", "tested_target", "experimental_readout", "recorded_measurement"],
 "data": [
  ["CC1=C(CC(=O)O)c2cc(F)ccc2/C1=C\\c1ccc(Cc2cc3ccccc3s2)cc1", "MDA-MB-231 (breast cancer)", "inhibition at 10 µM", "≥ 50%"],
  ["CC1=C(CC(=O)O)c2cc(F)ccc2/C1=C\\c1ccc(Sc2ccc(F)cc2)cc1", "MDA-MB-231 (breast cancer)", "inhibition at 10 µM", "< 30%"],
  ["CC1=C(CC(=O)O)c2cc(F)ccc2/C1=C\\c1ccc(Oc2ccc(I)cc2)cc1", "MDA-MB-231 (breast cancer)", "inhibition at 10 µM", "≥ 50%"],
  ["CC1=C(CC(=O)O)c2cc(F)ccc2/C1=C\\c1ccc(CCOC2CCCCO2)cc1 (stereo not drawn)", "MDA-MB-231 (breast cancer)", "inhibition at 10 µM", "≥ 50%"],
  ["O=C(O)CC1=C/C(=C/c2cccc(COc3ccccc3)c2)c2ccc(F)cc21", "MDA-MB-231 (breast cancer)", "inhibition at 10 µM", "≥ 50%"],
  ["COc1ccc2c(c1)/C(=C\\c1ccc(OCc3ccccc3)cc1)C=C2CC(=O)O", "MDA-MB-231 (breast cancer)", "inhibition at 10 µM", "≥ 50%"]
]}

Param readout= inhibition at 10 µM; system= MDA-MB-231 (breast cancer); entry= "CC1=C(CC(=O)O)c2cc(F)ccc2/C1=C\c1cccc(Oc2cccc(Cl)c2)c1" ; returns value.
< 30%

Param readout= inhibition at 10 µM; system= MDA-MB-231 (breast cancer); entry= "COc1cc(Oc2ccc(/C=C3/C(C)=C(CC(=O)O)c4cc(F)ccc43)cc2)ccc1Cl" ; returns value.
30 to 50%

Param readout= inhibition at 10 µM; system= MDA-MB-231 (breast cancer); entry= "CC1=C(CC(=O)O)c2cc(F)ccc2/C1=C\c1ccc(OC2CCN(C(=O)OC(C)(C)C)CC2)cc1" ; returns value.
≥ 50%
